Where a name gives a salt, the structure may show the parent alone.
Below, each entry is listed alongside its reported melting point.
reported-property: melting point

1. CCS(=O)(=O)Nc1ccc2ccn(C3CCN(CCc4ccc(F)cc4)CC3)c2c1 [Example 335]; 192 to 194 °C
2. Fc1ccc(CCN2CCC(n3ccc4cc5scnc5cc43)CC2)cc1 [Example 334]; 152 to 154 °C
3. CN(C)C(=O)NCc1ccc2ccn(C3CCN(CCc4ccc(F)cc4)CC3)c2c1 [Example 385]; 115 to 116 °C
4. CN(C)CCC(=O)NCc1ccc2ccn(C3CCN(CCc4ccc(F)cc4)CC3)c2c1 (as salt: oxalate) [Example 378]; 104 to 105 °C
5. CC(=O)NCc1ccc2c(Cl)cn(C3CCN(CCc4ccc(F)cc4)CC3)c2c1 [Example 328]; 101 to 102 °C
6. O=C1CCCN1Cc1ccc2ccn(C3CCN(CCc4ccc(F)cc4)CC3)c2c1 (as salt: oxalate) [Example 358]; 179 to 180 °C
7. CC(=O)NCc1ccc2ccn(C3CCN(CCc4cccc(F)c4)CC3)c2c1 [Example 350]; 134 to 135 °C
8. O=C(Cc1ccc2ccn(C3CCN(CCc4ccc(F)cc4)CC3)c2c1)N1CCC(O)CC1 [Example 302]; 190.5 to 192.2 °C (dec.)

---

target-system: serotonin 2 receptor (Rattus norvegicus)
Sequence (P14842 whole entry): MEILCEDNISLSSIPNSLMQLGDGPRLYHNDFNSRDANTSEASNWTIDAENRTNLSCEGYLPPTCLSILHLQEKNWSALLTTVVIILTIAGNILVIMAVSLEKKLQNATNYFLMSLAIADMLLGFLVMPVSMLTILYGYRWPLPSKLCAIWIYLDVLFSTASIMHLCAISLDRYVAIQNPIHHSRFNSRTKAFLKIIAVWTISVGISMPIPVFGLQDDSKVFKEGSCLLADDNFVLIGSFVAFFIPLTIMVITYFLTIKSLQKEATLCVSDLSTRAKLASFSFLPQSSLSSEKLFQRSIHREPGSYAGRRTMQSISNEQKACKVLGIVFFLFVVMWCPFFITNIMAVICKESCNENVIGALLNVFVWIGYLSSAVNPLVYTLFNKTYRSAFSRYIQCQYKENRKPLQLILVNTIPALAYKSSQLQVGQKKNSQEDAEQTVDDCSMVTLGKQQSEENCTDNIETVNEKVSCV
assay-comment: Binding test on [3H] ketanserin (serotonin 2 receptor)
experimental-setup: [3H] ketanserin 0.3 nM, receptor fraction of rat cerebral cortex; read-out: 5HT2
Counter-ions that a name gives are not always drawn.
Each record is given y if its reported Ki is strictly below 10 nM. Records at or above 10 nM are given n.

1. CC(C)C(=O)NCc1ccc2ccn(C3CCN(CCc4ccc(F)cc4)CC3)c2c1; y
2. CC(=O)N(C)Cc1ccc2c(c1)N(C1CCN(CCc3ccc(F)cc3)CC1)CC2; y
3. Cc1ncsc1CCN1CCC(N2CCc3ccccc32)CC1; n
4. CNC(=O)Cc1ccc2c(c1)N(C1CCN(CCc3ccc(F)cc3)CC1)CC2; y
5. COc1ccc(C(=O)c2ccc3ccn(C4CCN(CCc5ccc(F)cc5)CC4)c3c2)cn1 [Example 317, Oxalate]; n
6. CS(=O)(=O)Oc1ccc2c(c1)N(C1CCN(CCc3ccc(F)cc3)CC1)CC2; n
7. N#Cc1ccc(CCN2CCC(N3CCc4ccccc43)CC2)cn1; n
8. CC(C)NC(=O)Cc1ccc(CCN2CCC(N3CCc4ccccc43)CC2)cc1; y
9. OCc1ccc(CCN2CCC(N3CCc4ccccc43)CC2)cc1; n
10. Fc1ccc(CCN2CCC(=C3CCc4cccnc43)CC2)cc1; n
11. OCCOc1ccc2c(c1)N(C1CCN(CCc3ccc(F)cc3)CC1)CC2; n
12. CC(=O)NCc1ccc2ccn(C3CCN(CCc4ccccc4F)CC3)c2c1; y
13. CNC(=O)Cc1ccc2ccn(C3CCN(CCc4ccc(F)cc4)CC3)c2c1; y
14. CNCc1ccc2ccn(C3CCN(CCc4ccc(F)cc4)CC3)c2c1; n
15. OC1(C2CCc3cccnc32)CCN(CCc2ccc(F)cc2)CC1 (stereo not drawn); n
16. Oc1ccc2c(c1)N(C1CCN(CCc3ccc(F)cc3)CC1)CC2; y
17. O/N=C/c1ccc2c(c1)N(C1CCN(CCc3ccc(F)cc3)CC1)CC2; n
18. CC(C)CNC(=O)Cc1ccc2ccn(C3CCN(CCc4ccc(F)cc4)CC3)c2c1; y
